Numbers sourced from paper PMC6201879.

This listing pairs molecules with measured AUC _%Extrap_obs (PO).
- protocol: Pharmacokinetic profile in Sprague Dawley rats (IV and PO)
- Type: in vivo
- measurement.setup: PO 5 mg/kg in PBS, Mean + SD (n = 3)

Reference set, count: 3
molecule	AUC _%Extrap_obs (PO)
CC(C)(C)c1ccc(O)c(C(=O)Nc2ccc(C(=O)O)cc2C(F)(F)F)c1 [Compound 500873]	11.14 +/- 11.6%
CC(C)(C)c1ccc(O)c(C(=O)Nc2ccc(C(=O)O)cc2Cl)c1 [Compound 500200]	1.94 +/- 1.27%
CC(C)(C)c1cc(C(=O)Nc2ccc(C(=O)O)cc2Cl)c(O)c(C(C)(C)C)c1 [Compound 600453]	2.22 +/- 1.36%

Consider the record given below.
In: Give the measured AUC _%Extrap_obs (PO) of CC(C)(C)c1ccc(O)c(C(=O)Nc2cc(C(=O)O)ccc2Cl)c1 [Compound 600494] .
Out: 3.64 +/-4.73%

---

- protocol: Pharmacokinetic profile in Sprague Dawley rats (IV and PO)
- Type: in vivo
- measurement.setup: Sprague Dawley, rat, plasma, po, 5 mg/kg, PO 5 mg/kg in PBS, Mean + SD (n = 3), read-out: T 1/2 (PO) (converted)
assay.metric: half-life (h)
Supply the numeric figure in h, leaving out any unit text.

Reference set, count: 2
CC(C)(C)c1ccc(O)c(C(=O)Nc2ccc(C(=O)O)cc2Cl)c1 1.51
CC(C)(C)c1cc(C(=O)Nc2ccc(C(=O)O)cc2Cl)c(O)c(C(C)(C)C)c1 3.9

In: Give the measured half-life of `CC(C)(C)c1ccc(O)c(C(=O)Nc2cc(C(=O)O)ccc2Cl)c1` .
Out: 5.3

---

- Tested on: Salmonella typhimurium TA98
- protocol: Ames assay, strain TA98
- measurement.setup: 25 ug/Well; with S9
assay.metric: Mean Revertant Colony Counts TA98 SP9+
Write the number on its own, no unit after it.

CC(C)(C)c1cc(C(=O)Nc2ccc(C(=O)O)cc2Cl)c(O)c(C(C)(C)C)c1 6.3
CC(C)(C)c1ccc(O)c(C(=O)Nc2ccc(C(=O)O)cc2C(F)(F)F)c1 9.3
CC(C)(C)c1ccc(O)c(C(=O)Nc2ccc(C(=O)O)cc2Cl)c1 7.3

Consider the record given below.
In: Give the measured Mean Revertant Colony Counts TA98 SP9+ of `CC(C)(C)c1ccc(O)c(C(=O)Nc2cc(C(=O)O)ccc2Cl)c1` .
Out: 12.0

---

- Tested on: Salmonella typhimurium TA100
- measurement.setup: 64 ug/Well; with S9
This listing pairs compounds with measured Mean Revertant Colony Counts TA-100 SP9+.
Write the number on its own, no unit after it.

Reference set, count: 3
CC(C)(C)c1cc(C(=O)Nc2ccc(C(=O)O)cc2Cl)c(O)c(C(C)(C)C)c1 31.7
CC(C)(C)c1ccc(O)c(C(=O)Nc2cc(C(=O)O)ccc2Cl)c1 16.3
CC(C)(C)c1ccc(O)c(C(=O)Nc2ccc(C(=O)O)cc2C(F)(F)F)c1 18.3

In: Give the measured Mean Revertant Colony Counts TA-100 SP9+ of `CC(C)(C)c1ccc(O)c(C(=O)Nc2ccc(C(=O)O)cc2Cl)c1` .
Out: 20.3

---

- Tested on: Salmonella typhimurium TA98
- protocol: Ames assay, strain TA98
- measurement.setup: 400 ug/Well; without S9
assay.metric: Mean Revertant Colony Counts TA98 S9-
Write the number on its own, no unit after it.

In: Give the measured Mean Revertant Colony Counts TA98 S9- of CC(C)(C)c1ccc(O)c(C(=O)Nc2ccc(C(=O)O)cc2C(F)(F)F)c1 [Compound 500873] .
Out: 11.7

In: Give the measured Mean Revertant Colony Counts TA98 S9- of CC(C)(C)c1cc(C(=O)Nc2ccc(C(=O)O)cc2Cl)c(O)c(C(C)(C)C)c1 [Compound 600453] .
Out: 2.0

In: Give the measured Mean Revertant Colony Counts TA98 S9- of CC(C)(C)c1ccc(O)c(C(=O)Nc2ccc(C(=O)O)cc2Cl)c1 [Compound 500200] .
Out: 9.7

In: Give the measured Mean Revertant Colony Counts TA98 S9- of CC(C)(C)c1ccc(O)c(C(=O)Nc2cc(C(=O)O)ccc2Cl)c1 [Compound 600494] .
Out: 14.0

---

- System: Salmonella typhimurium TA100
- measurement.setup: 4 ug/Well; with S9
assay.metric: Mean Revertant Colony Counts TA-100 SP9+
Write the number on its own, no unit after it.

In: Give the measured Mean Revertant Colony Counts TA-100 SP9+ of `CC(C)(C)c1ccc(O)c(C(=O)Nc2ccc(C(=O)O)cc2Cl)c1` .
Out: 19.7

In: Give the measured Mean Revertant Colony Counts TA-100 SP9+ of `CC(C)(C)c1ccc(O)c(C(=O)Nc2ccc(C(=O)O)cc2C(F)(F)F)c1` .
Out: 18.3

In: Give the measured Mean Revertant Colony Counts TA-100 SP9+ of `CC(C)(C)c1cc(C(=O)Nc2ccc(C(=O)O)cc2Cl)c(O)c(C(C)(C)C)c1` .
Out: 21.3

In: Give the measured Mean Revertant Colony Counts TA-100 SP9+ of O=C(Nc1ccc([N+](=O)[O-])cc1Cl)c1cc(Cl)ccc1O [Niclosamide] .
Out: 36.7

In: Give the measured Mean Revertant Colony Counts TA-100 SP9+ of `CC(C)(C)c1ccc(O)c(C(=O)Nc2cc(C(=O)O)ccc2Cl)c1` .
Out: 17.3

---

- protocol: Pharmacokinetic profile in Sprague Dawley rats (IV and PO)
- Format: in vivo
- measurement.setup: Sprague Dawley, rat, plasma, iv, 1 mg/kg, IV 1 mg/kg, Mean + SD (n = 3), read-out: T 1/2 (IV) (converted)
This listing pairs compounds with measured half-life.
Supply the numeric figure in h, leaving out any unit text.

compound	half-life, h
CC(C)(C)c1ccc(O)c(C(=O)Nc2cc(C(=O)O)ccc2Cl)c1 [Compound 600494]	5.36

In: Give the measured half-life of CC(C)(C)c1ccc(O)c(C(=O)Nc2ccc(C(=O)O)cc2Cl)c1 [Compound 500200] .
Out: 1.66

In: Give the measured half-life of CC(C)(C)c1cc(C(=O)Nc2ccc(C(=O)O)cc2Cl)c(O)c(C(C)(C)C)c1 [Compound 600453] .
Out: 3.68

In: Give the measured half-life of CC(C)(C)c1ccc(O)c(C(=O)Nc2ccc(C(=O)O)cc2C(F)(F)F)c1 [Compound 500873] .
Out: 2.87

---

- Tested on: Salmonella typhimurium TA100
- measurement.setup: 64 ug/Well; without S9
This listing pairs molecules with measured Mean Revertant Colony Counts TA-100 S9-.
Write the number on its own, no unit after it.

Reference set, count: 3
CC(C)(C)c1ccc(O)c(C(=O)Nc2ccc(C(=O)O)cc2C(F)(F)F)c1 28.7
CC(C)(C)c1ccc(O)c(C(=O)Nc2cc(C(=O)O)ccc2Cl)c1 33.0
CC(C)(C)c1ccc(O)c(C(=O)Nc2ccc(C(=O)O)cc2Cl)c1 26.3

Consider the record given below.
In: Give the measured Mean Revertant Colony Counts TA-100 S9- of `CC(C)(C)c1cc(C(=O)Nc2ccc(C(=O)O)cc2Cl)c(O)c(C(C)(C)C)c1` .
Out: 26.3

---

This listing pairs compounds with measured Remaining Percentage of 60 min (%), Mouse, Heat-inactivated Control.
- protocol: Metabolic stability in mouse liver microsomes
- Type: in vitro ADME
- measurement.setup: heat inactivated microsomes without NADPH; 60 min
Supply the numeric figure in %, leaving out any unit text.

CC(C)(C)c1ccc(O)c(C(=O)Nc2ccc(C(=O)O)cc2C(F)(F)F)c1 105.5
COC(=O)c1ccc(NC(=O)c2cccc(C(C)(C)C)c2O)c(Cl)c1 57.6
CC(C)(C)c1ccc(O)c(C(=O)Nc2ccc(C(=O)O)cc2Cl)c1 102.7

In: Give the measured Remaining Percentage of 60 min (%), Mouse, Heat-inactivated Control of `CC(C)(C)c1cc(C(=O)Nc2ccc(C(=O)O)cc2Cl)c(O)c(C(C)(C)C)c1` .
Out: 91.4

In: Give the measured Remaining Percentage of 60 min (%), Mouse, Heat-inactivated Control of `CC(C)(C)c1ccc(O)c(C(=O)Nc2cc(C(=O)O)ccc2Cl)c1` .
Out: 98.5

---

- Test system: Salmonella typhimurium TA98
- protocol: Ames assay, strain TA98
- measurement.setup: 4 ug/Well; without S9
This listing pairs molecules with measured Mean Revertant Colony Counts TA98 S9-.
Write the number on its own, no unit after it.

Reference set, count: 2
CC(C)(C)c1cc(C(=O)Nc2ccc(C(=O)O)cc2Cl)c(O)c(C(C)(C)C)c1 3.7
CC(C)(C)c1ccc(O)c(C(=O)Nc2ccc(C(=O)O)cc2Cl)c1 12.0

In: Lab note: need Mean Revertant Colony Counts TA98 S9- for `CC(C)(C)c1ccc(O)c(C(=O)Nc2cc(C(=O)O)ccc2Cl)c1` on Salmonella typhimurium TA98, anyone have it?
Out: 7.7

In: Lab note: need Mean Revertant Colony Counts TA98 S9- for `CC(C)(C)c1ccc(O)c(C(=O)Nc2ccc(C(=O)O)cc2C(F)(F)F)c1` on Salmonella typhimurium TA98, anyone have it?
Out: 9.0
